subjectOfTest: cGMP-inhibited 3',5'-cyclic phosphodiesterase 3B (Homo sapiens)
Sequence (Q13370 whole entry): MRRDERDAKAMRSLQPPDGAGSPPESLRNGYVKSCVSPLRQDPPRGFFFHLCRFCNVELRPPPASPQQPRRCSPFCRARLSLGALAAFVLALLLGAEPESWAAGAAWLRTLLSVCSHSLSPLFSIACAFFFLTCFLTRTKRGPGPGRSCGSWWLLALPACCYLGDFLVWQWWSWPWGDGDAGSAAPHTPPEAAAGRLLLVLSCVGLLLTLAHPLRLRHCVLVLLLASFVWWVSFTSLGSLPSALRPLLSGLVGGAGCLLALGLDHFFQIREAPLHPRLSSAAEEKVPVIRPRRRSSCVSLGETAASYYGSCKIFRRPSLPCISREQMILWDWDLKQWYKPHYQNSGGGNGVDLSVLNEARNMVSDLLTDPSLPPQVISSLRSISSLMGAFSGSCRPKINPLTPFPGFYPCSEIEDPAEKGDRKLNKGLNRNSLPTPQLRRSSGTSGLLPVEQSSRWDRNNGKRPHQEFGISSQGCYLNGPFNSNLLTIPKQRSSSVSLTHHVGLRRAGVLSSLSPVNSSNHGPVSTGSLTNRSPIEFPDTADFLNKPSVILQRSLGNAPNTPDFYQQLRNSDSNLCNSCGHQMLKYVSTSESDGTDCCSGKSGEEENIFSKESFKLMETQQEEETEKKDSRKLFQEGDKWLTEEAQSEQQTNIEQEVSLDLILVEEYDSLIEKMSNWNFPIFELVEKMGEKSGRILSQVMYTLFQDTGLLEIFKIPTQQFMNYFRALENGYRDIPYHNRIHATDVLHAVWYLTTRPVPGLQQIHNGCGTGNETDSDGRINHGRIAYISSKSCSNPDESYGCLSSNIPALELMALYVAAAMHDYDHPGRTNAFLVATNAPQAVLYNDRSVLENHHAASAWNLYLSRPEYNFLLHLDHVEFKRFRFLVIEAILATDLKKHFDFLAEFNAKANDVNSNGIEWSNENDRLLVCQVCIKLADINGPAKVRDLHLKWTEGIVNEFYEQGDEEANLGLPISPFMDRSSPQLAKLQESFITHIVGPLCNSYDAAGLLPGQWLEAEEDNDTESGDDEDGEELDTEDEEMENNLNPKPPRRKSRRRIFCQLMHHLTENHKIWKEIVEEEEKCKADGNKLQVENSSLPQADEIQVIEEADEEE
assayText: Inhibition of recombinant human PDE3B assessed as reduction of [3H]-cAMP hydrolysis preincubated for 5 mins followed by [3H]-cAMP addition measured after 20 mins by scintillation proximity assay
pIC50: −log10 of the molar value.
Returns one of label 1 or label 0; label 1 when pIC50 is >= 5.

                                smilesinput      cat
0  Cn1ncc(-c2ccncc2)c1-c1ccc(OCc2cc(COCCF)c3ccccc3n2)cc1  label 0
1  Cn1cc(-c2ccncc2)c(-c2ccc(OCc3cc(COCCF)c4ccccc4n3)cc2)n1  label 1
2  Cn1cc(-c2ccncc2)c(-c2ccc(OCc3ccc4cc(F)ccc4n3)cc2)n1  label 0
3  Cn1cc(-c2ccncc2)c(-c2ccc(OCc3cc(-n4cc(CCF)nn4)c4ccccc4n3)cc2)n1  label 1
4  Cn1cc(-c2ccncc2)c(-c2ccc(OCc3cc(CCCF)c4ccccc4n3)cc2)n1  label 0
5  Cn1ncc(-c2ccncc2)c1-c1ccc(OCc2ccc3cc(F)ccc3n2)cc1  label 0

---

subjectOfTest: 3',5'-cyclic-AMP phosphodiesterase 4A (Homo sapiens, UniProt P27815)
Sequence (P27815 whole entry): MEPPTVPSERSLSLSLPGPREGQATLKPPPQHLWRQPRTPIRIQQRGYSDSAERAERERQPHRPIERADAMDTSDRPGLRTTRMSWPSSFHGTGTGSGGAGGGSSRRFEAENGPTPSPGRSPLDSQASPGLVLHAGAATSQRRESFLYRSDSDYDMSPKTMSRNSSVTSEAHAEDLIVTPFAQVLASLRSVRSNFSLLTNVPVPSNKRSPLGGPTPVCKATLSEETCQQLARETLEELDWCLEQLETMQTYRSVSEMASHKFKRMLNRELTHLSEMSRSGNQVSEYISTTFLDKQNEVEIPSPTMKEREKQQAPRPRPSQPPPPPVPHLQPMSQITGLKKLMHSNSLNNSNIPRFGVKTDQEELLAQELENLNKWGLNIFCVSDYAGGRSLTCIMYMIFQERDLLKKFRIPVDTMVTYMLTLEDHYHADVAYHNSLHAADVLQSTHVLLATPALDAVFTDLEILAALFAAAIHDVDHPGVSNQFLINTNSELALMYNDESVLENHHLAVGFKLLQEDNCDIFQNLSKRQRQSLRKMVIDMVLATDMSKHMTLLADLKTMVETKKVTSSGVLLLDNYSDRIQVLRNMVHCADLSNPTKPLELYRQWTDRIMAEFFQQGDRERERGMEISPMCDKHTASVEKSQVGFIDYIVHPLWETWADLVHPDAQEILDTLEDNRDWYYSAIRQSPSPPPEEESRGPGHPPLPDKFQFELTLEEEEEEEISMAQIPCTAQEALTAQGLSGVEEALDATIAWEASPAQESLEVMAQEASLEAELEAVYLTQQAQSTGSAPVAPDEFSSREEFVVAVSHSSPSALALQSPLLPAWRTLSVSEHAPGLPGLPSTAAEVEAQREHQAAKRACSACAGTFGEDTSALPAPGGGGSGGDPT
assayText: Inhibition of recombinant human PDE4A assessed as reduction of [3H]-cAMP hydrolysis preincubated for 5 mins followed by [3H]-cAMP addition measured after 20 mins by scintillation proximity assay
# if measured IC50 < 2000 nM: T  # else: F

>>> print(df.to_string())
                                smilesinput  cat
0  Cn1ncc(-c2ccncc2)c1-c1ccc(OCc2cc(NCCF)c3ccccc3n2)cc1    F
1  Cn1cc(-c2ccncc2)c(-c2ccc(OCc3cc(COCCF)c4ccccc4n3)cc2)n1    F
2  Cn1cc(-c2ccncc2)c(-c2ccc(OCc3cc(OCCF)c4ccccc4n3)cc2)n1    T
3  Cn1cc(-c2ccncc2)c(-c2ccc(OCc3cc(OCCOCCOCCF)c4ccccc4n3)cc2)n1    T
4  Cn1cc(-c2ccncc2)c(-c2ccc(OCc3cc(NCCF)c4ccccc4n3)cc2)n1    F

---

System: Bone
assayText: Biodistribution in Sprague-Dawley rat bone at 1.48 to 2.22 MBq, iv measured at 30 mins by gamma counting analysis
Assay type: ADME, organism-based, Bone element
cond: in vivo, 0.5 h
Think of 0.4 % ID/g as a floor: if Drug uptake stands on it or above, it is Criterion met; beneath it, Criterion not met.

In [3]: df
Out[3]:
                                smilesinput                cat
0  Cn1cc(-c2ccncc2)c(-c2ccc(OCc3cc(OCCOCCOCC[18F])c4ccccc4n3)cc2)n1      Criterion met
1  Cn1cc(-c2ccncc2)c(-c2ccc(OCc3cc(C[18F])c4ccccc4n3)cc2)n1      Criterion met
2  Cn1cc(-c2ccncc2)c(-c2ccc(OCc3cc(CCC[18F])c4ccccc4n3)cc2)n1      Criterion met
3  Cn1cc(-c2ccncc2)c(-c2ccc(OCc3nc4ccccc4cc3OCC[18F])cc2)n1  Criterion not met
4  Cn1cc(-c2ccncc2)c(-c2ccc(OCc3cc([18F])c4ccccc4n3)cc2)n1      Criterion met
5  Cn1cc(-c2ccncc2)c(-c2ccc(OCc3cc(COCC[18F])c4ccccc4n3)cc2)n1  Criterion not met
6  Cn1cc(-c2ccncc2)c(-c2ccc(OCc3cc(OCC[18F])c4ccccc4n3)cc2)n1  Criterion not met

---

System: Brain
assayText: Biodistribution in Sprague-Dawley rat brain at 1.48 to 2.22 MBq, iv measured at 30 mins by gamma counting analysis
Assay type: ADME, organism-based
cond: in vivo, 0.5 h
outcomeMeasure: Drug uptake (% ID/g)

>>> print(df.to_string())
                                smilesinput  unitofmeasure  measuredvalue
0  Cn1cc(-c2ccncc2)c(-c2ccc(OCc3cc([18F])c4ccccc4n3)cc2)n1         % ID/g          0.191
1  Cn1cc(-c2ccncc2)c(-c2ccc(OCc3cc(COCC[18F])c4ccccc4n3)cc2)n1         % ID/g          0.353
2  Cn1cc(-c2ccncc2)c(-c2ccc(OCc3cc(C[18F])c4ccccc4n3)cc2)n1         % ID/g          0.094
3  Cn1cc(-c2ccncc2)c(-c2ccc(OCc3cc(CCC[18F])c4ccccc4n3)cc2)n1         % ID/g          0.046
4  Cn1cc(-c2ccncc2)c(-c2ccc(OCc3cc(OCC[18F])c4ccccc4n3)cc2)n1         % ID/g          0.078
5  Cn1cc(-c2ccncc2)c(-c2ccc(OCc3cc(OCCOCCOCC[18F])c4ccccc4n3)cc2)n1         % ID/g          0.509
6  Cn1cc(-c2ccncc2)c(-c2ccc(OCc3nc4ccccc4cc3OCC[18F])cc2)n1         % ID/g          0.129

---

System: Rattus norvegicus
assayText: Biodistribution in Sprague-Dawley rat fat tissue at 1.48 to 2.22 MBq, iv measured at 5 mins by gamma counting analysis
Type: ADME, organism-based, Adipose tissue
cond: in vivo
outcomeMeasure: Drug uptake (% ID/g)

>>> print(df.to_string())
                                smilesinput  outcomemeasure  measuredvalue
0  Cn1cc(-c2ccncc2)c(-c2ccc(OCc3cc(OCCOCCOCC[18F])c4ccccc4n3)cc2)n1     Drug uptake          0.225
1  Cn1cc(-c2ccncc2)c(-c2ccc(OCc3nc4ccccc4cc3OCC[18F])cc2)n1     Drug uptake          0.119
2  Cn1cc(-c2ccncc2)c(-c2ccc(OCc3cc([18F])c4ccccc4n3)cc2)n1     Drug uptake          0.404
3  Cn1cc(-c2ccncc2)c(-c2ccc(OCc3cc(C[18F])c4ccccc4n3)cc2)n1     Drug uptake          0.343
4  Cn1cc(-c2ccncc2)c(-c2ccc(OCc3cc(CCC[18F])c4ccccc4n3)cc2)n1     Drug uptake           0.22
5  Cn1cc(-c2ccncc2)c(-c2ccc(OCc3cc(COCC[18F])c4ccccc4n3)cc2)n1     Drug uptake          0.139
6  Cn1cc(-c2ccncc2)c(-c2ccc(OCc3cc(OCC[18F])c4ccccc4n3)cc2)n1     Drug uptake          0.213

---

subjectOfTest: cAMP and cAMP-inhibited cGMP 3',5'-cyclic phosphodiesterase 10A (Homo sapiens)
Sequence (Q9Y233 whole entry): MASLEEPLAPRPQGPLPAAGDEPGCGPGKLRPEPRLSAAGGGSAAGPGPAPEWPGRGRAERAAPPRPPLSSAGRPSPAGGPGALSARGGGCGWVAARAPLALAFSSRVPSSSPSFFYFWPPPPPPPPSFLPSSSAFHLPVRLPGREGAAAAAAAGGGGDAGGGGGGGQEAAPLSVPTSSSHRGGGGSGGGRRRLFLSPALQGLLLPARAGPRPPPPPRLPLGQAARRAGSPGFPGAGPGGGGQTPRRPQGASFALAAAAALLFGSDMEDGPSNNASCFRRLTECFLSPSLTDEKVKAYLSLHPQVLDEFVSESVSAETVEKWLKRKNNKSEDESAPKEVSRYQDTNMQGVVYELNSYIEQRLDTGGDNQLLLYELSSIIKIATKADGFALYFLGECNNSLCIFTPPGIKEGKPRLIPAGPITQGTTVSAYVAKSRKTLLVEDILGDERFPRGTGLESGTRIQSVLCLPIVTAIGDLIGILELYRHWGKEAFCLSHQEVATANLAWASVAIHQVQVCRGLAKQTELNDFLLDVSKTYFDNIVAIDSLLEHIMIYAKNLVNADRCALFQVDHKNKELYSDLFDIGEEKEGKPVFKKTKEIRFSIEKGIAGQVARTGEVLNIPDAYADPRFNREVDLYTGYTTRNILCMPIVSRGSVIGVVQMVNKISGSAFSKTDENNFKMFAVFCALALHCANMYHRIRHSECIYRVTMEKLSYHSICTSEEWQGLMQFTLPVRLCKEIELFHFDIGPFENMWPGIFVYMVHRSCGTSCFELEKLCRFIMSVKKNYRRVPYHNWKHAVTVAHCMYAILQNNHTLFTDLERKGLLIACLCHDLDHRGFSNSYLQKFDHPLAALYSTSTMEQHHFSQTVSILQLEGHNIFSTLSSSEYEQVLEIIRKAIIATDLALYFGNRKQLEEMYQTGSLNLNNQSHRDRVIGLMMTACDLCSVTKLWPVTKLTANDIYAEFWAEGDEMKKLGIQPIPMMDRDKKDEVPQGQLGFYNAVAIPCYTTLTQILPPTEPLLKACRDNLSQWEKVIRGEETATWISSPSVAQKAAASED
assayText: Inhibition of recombinant human PDE10A assessed as reduction of [3H]-cAMP hydrolysis preincubated for 5 mins followed by [3H]-cAMP addition measured after 20 mins by scintillation proximity assay
outcomeMeasure: IC50

>>> df
                                smilesinput  outcomemeasure  measuredvalue
0  Cn1ncc(-c2ccncc2)c1-c1ccc(OCc2cc(OCCF)c3ccccc3n2)cc1            IC50        1.16 nM
1  Cn1cc(-c2ccncc2)c(-c2ccc(OCc3ccc4cc(CF)ccc4n3)cc2)n1            IC50        > 76 nM
2  Cn1cc(-c2ccncc2)c(-c2ccc(OCc3nc4ccccc4cc3OCCF)cc2)n1            IC50        0.26 nM
3  Cn1cc(-c2ccncc2)c(-c2ccc(OCc3cc(COCCF)c4ccccc4n3)cc2)n1            IC50        0.65 nM
4  Cn1cc(-c2ccncc2)c(-c2ccc(OCc3cc(-n4cc(CCF)nn4)c4ccccc4n3)cc2)n1            IC50        3.07 nM
5  Cn1cc(-c2ccncc2)c(-c2ccc(OCc3cc(NCCF)c4ccccc4n3)cc2)n1            IC50        0.52 nM
6  Cn1cc(-c2ccncc2)c(-c2ccc(OCc3cc(OCCOCCOCCF)c4ccccc4n3)cc2)n1            IC50        0.24 nM
7  Cn1cc(-c2ccncc2)c(-c2ccc(OCc3ccc4cc(F)ccc4n3)cc2)n1            IC50        0.29 nM
8  Cn1ncc(-c2ccncc2)c1-c1ccc(OCc2ccc3cc(F)ccc3n2)cc1            IC50        0.76 nM

---

Test system: Rattus norvegicus
assayText: Biodistribution in Sprague-Dawley rat fat tissue at 1.48 to 2.22 MBq, iv measured at 30 mins by gamma counting analysis
Format: ADME, organism-based, Adipose tissue
cond: in vivo, 0.5 h
outcomeMeasure: Drug uptake (% ID/g)

>>> print(df.to_string())
                                smilesinput      subjectoftest  unitofmeasure  measuredvalue
0  Cn1cc(-c2ccncc2)c(-c2ccc(OCc3cc(CCC[18F])c4ccccc4n3)cc2)n1  Rattus norvegicus         % ID/g          0.491
1  Cn1cc(-c2ccncc2)c(-c2ccc(OCc3cc(C[18F])c4ccccc4n3)cc2)n1  Rattus norvegicus         % ID/g          0.352
2  Cn1cc(-c2ccncc2)c(-c2ccc(OCc3cc(COCC[18F])c4ccccc4n3)cc2)n1  Rattus norvegicus         % ID/g          0.139
3  Cn1cc(-c2ccncc2)c(-c2ccc(OCc3cc([18F])c4ccccc4n3)cc2)n1  Rattus norvegicus         % ID/g          0.576
4  Cn1cc(-c2ccncc2)c(-c2ccc(OCc3cc(OCC[18F])c4ccccc4n3)cc2)n1  Rattus norvegicus         % ID/g          0.302
5  Cn1cc(-c2ccncc2)c(-c2ccc(OCc3cc(OCCOCCOCC[18F])c4ccccc4n3)cc2)n1  Rattus norvegicus         % ID/g          0.254
6  Cn1cc(-c2ccncc2)c(-c2ccc(OCc3nc4ccccc4cc3OCC[18F])cc2)n1  Rattus norvegicus         % ID/g          0.202
